test: Her2 expression decrease, cell viability multiplex – SKBR3 breast tumor cells, AlphaScreen, ATP viability, primary screen (AID 461); details: SKBR3 Her2 protein level, 18-24 h, measured here: SKBR3 viability, ATP luminescence, at 10 µM;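 also: percent of carrier control wells set as 100% viability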
assay_endpoint: viability (%)
Numbers only, in %.

The following molecules have reported results that may help.
Cn1c(=O)[nH]c(=O)c2c1nc(N1CCCCC1)n2CCSc1ncccn1 = 101
COc1ccc(C2CC(c3cccs3)n3nc(N)nc3N2)cc1 (stereo unspecified) = 113
CCc1ccc(C2CC(c3cccc(OC)c3)n3nc(N)nc3N2)cc1 (stereo unspecified) = 90
CC(C)n1c(CN2CCN(C)CC2)nc2c1c(=O)n(C)c(=O)n2C = 95.5

Working through the 2 molecules below one at a time, give viability for each.
1. COc1ccc(-c2nc(C)c(C(C)=O)n2O)cc1OC
2. COC(=O)Cn1c(=O)c2c(nc3n2CC(C)CN3c2ccc(C)c(C)c2)n(C)c1=O (stereo unspecified)

A)
1. 89
2. 90.5

###

assay: RAM pathway blockade in budding yeast – dse1pr::URA3 reporter, 5-FOA selection, pilot screen (AID 869);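 also: 0% = DMSO wells with no growth and 100% = 10 µM 1-NA-PP1 with full growth; RAM network block rescues cells from 5-FOA so hits raise OD615 growth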; conditions: S. cerevisiae dse1pr::URA3 5-FOA growth, OD615, 2 d; at 10 µM; stronger effect = higher value; strain carries analog-sensitive mutant Cbk1 kinase
Activity calls are given as the source filed them.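 The calls were made as follows: active = inhibition over a set limit, the all-compound mean plus 3 SD, in both replicate runs; inconclusive = over that limit in just one replicate run; inactive = at or under that limit in both runs.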
assay_endpoint: inhibition

The following compounds have reported results that may help.
Cc1c(C(=O)OCc2ccccc2)[nH]c2c1C(=O)CC(c1ccco1)C2 (stereo unspecified) = 1.69% (inactive)
Cc1oc2cc(O)ccc2c(=O)c1Oc1ccccc1Br = 1.68% (inactive)
CCn1c(SCC(=O)N2CCOCC2)nc(O)cc1=O = 2.59% (inactive)
CCCC(=O)c1ccc(N2CCCCCC2)c(F)c1 = 1.73% (inactive)
CCOC(=O)C1=C(C)NC(=O)NC1c1ccc(OCCO)c(OC)c1 (stereo unspecified) = 1.9% (inactive)

Working through the 6 compounds below one at a time, give inhibition for each.
1. O=C(CN1C(=O)CCC1=O)Nc1nc2c(F)cc(F)cc2s1
2. CCOc1ccccc1NC(=O)C1CCN(S(=O)(=O)c2cccc3cccnc23)CC1
3. COc1ccc(OC)c(C2=NOC(C(=O)Nc3c(C)n(C)n(-c4ccccc4)c3=O)C2)c1 (stereo unspecified)
4. COc1ccc(CNC(=O)c2ccc(CN3CCOCC3)cc2)cc1
5. COc1ccc(C(c2sc3nc(C)nn3c2O)N2CCCCC2)cc1 (stereo unspecified)
6. CC(C)c1nnc(NC(=O)C2CCCCC2)s1

A)
1. 1.6% (inactive)
2. 1.24% (inactive)
3. 0.74% (inactive)
4. 1.33% (inactive)
5. 0.45% (inactive)
6. -0.59% (inactive)

###

test: MRP1 drug-resistance reversers in H69AR cells – cell-based, doxorubicin co-treatment, pilot screen (AID 601); details: H69AR cells, CellTiter-Glo, 72 h; compound alone cytotoxicity; at 10 µM
assay_endpoint: viability (%)
Give bare numbers, in %.

The following compounds have reported results that may help.
Cc1ccc(N2CCN(S(=O)(=O)N(C)C)CC2)c(C)c1 = 83.5
Cc1cc(C)cc(NC(=O)CSc2nnc(Cc3cccn3C)n2-c2ccc(F)cc2)c1 = 86.6
Cc1nnc(SCC(=O)Nc2c(Cl)cccc2Cl)[nH]c1=O = 93.9
CS(=O)(=O)Nc1ccccc1C(=O)O = 98.8
CCSc1oc(-c2ccco2)nc1S(=O)(=O)c1ccccc1 = 89.3

Working through the 6 compounds below one at a time, give viability for each.
1. O=C1c2ccccc2C(=O)N1C/C=C/CN1C(=O)c2ccccc2C1=O
2. COc1cccc(NC(=O)c2nc3nc(C)cc(C(F)F)n3n2)c1
3. O=c1c2ccccc2nc(SCc2nc(-c3ccccc3)no2)n1-c1ccc(F)cc1
4. CC(C)c1ccc(NC(=O)CCNS(=O)(=O)c2cccc3nonc23)cc1
5. COCCn1c(=O)[nH]c2cc(C(=O)NCCCN3CCN(c4ccc(F)cc4)CC3)ccc2c1=O
6. CCCCCn1c(=O)[nH]c2cc(C(=O)NCCCN3CCCCC3)ccc2c1=O

A)
1. 82.8
2. 84
3. 89.7
4. 95.3
5. 100
6. 88.7
